- tested system: T1, Placenta Growth Factor (PlGF), human (human, UniProt P49763 21-149)
- T1 chain: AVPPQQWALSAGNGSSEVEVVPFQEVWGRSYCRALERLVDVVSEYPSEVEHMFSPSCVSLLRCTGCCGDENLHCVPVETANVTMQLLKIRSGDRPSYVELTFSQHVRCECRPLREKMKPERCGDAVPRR
- experiment summary: ELISA
Reported values of EC50 for individual entries
Form entry: value (nM) — number only.

Solved entries:
1. HC 9/SLC 8 (antibody) chain 1: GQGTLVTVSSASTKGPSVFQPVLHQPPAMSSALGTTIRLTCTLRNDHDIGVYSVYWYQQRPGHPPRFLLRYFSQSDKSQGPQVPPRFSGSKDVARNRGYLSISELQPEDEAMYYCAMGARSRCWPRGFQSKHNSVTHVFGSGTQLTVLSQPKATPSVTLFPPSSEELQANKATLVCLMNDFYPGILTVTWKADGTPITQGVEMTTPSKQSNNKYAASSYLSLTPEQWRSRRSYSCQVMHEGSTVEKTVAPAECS chain 2: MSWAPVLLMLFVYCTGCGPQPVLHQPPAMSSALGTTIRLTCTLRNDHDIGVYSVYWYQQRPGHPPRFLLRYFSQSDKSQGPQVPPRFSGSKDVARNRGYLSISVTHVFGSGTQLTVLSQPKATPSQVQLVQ = 0.063
2. HC 2/SLC 5 (antibody) chain 1: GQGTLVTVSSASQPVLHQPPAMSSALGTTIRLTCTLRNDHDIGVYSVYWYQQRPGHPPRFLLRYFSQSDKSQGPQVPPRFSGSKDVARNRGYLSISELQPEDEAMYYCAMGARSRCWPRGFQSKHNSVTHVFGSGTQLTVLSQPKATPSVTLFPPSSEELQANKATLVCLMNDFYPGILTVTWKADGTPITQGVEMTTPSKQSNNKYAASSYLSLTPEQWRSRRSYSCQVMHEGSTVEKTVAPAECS chain 2: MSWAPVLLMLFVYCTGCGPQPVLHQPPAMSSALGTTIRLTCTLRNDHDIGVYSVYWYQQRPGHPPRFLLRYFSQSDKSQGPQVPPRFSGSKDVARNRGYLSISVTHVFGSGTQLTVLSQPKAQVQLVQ = 0.248
3. HC 6/SLC 9 (antibody) chain 1: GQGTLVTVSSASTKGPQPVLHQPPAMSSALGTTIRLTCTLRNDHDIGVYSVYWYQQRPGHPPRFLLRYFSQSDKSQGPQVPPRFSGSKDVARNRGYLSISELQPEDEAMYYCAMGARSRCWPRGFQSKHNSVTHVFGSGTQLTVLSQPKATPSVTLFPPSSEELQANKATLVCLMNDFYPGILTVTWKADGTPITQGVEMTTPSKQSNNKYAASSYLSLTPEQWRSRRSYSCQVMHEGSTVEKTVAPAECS chain 2: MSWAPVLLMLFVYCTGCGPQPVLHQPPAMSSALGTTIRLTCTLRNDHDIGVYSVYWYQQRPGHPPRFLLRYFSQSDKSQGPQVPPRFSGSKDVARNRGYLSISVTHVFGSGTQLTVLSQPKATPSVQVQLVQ = 0.053
4. HC 8/SLC 4 (antibody) chain 1: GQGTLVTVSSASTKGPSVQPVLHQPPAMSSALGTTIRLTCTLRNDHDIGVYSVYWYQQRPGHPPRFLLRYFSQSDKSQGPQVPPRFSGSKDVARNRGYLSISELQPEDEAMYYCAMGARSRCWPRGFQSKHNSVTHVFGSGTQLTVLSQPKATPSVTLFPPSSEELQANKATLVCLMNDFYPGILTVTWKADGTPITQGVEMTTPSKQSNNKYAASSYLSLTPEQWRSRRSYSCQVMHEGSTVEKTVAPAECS chain 2: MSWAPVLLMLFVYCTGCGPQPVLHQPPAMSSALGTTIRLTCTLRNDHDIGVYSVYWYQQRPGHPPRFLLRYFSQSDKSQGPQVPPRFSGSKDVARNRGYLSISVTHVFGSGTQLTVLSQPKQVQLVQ = 0.281
5. HC 10/SLC 2 (antibody) chain 1: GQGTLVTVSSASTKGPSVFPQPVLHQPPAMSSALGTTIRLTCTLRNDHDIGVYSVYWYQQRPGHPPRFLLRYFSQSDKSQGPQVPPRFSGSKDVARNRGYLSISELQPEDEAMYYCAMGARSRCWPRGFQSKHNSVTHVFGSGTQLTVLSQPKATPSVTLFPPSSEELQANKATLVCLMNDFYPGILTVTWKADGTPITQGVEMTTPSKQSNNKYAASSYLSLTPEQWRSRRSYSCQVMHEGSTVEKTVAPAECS chain 2: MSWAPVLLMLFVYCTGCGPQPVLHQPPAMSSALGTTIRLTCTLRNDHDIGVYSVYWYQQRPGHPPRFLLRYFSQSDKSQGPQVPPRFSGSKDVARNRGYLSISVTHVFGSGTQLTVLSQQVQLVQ = 0.166
6. HC 9/SLC 5 (antibody) chain 1: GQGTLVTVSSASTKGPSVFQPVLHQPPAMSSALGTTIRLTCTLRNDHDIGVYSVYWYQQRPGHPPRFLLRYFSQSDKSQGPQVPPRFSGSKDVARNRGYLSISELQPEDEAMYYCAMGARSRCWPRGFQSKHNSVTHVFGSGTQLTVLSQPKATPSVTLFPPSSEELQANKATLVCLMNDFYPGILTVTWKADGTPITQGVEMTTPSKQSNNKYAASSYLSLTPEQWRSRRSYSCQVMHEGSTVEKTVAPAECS chain 2: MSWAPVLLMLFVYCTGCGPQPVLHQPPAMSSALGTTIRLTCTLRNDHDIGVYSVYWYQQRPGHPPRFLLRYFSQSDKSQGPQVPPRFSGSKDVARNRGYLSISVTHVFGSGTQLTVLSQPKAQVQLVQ = 0.172

Field request: EC50 | item: HC 3/SLC 4 (antibody) chain 1: GQGTLVTVSSASTQPVLHQPPAMSSALGTTIRLTCTLRNDHDIGVYSVYWYQQRPGHPPRFLLRYFSQSDKSQGPQVPPRFSGSKDVARNRGYLSISELQPEDEAMYYCAMGARSRCWPRGFQSKHNSVTHVFGSGTQLTVLSQPKATPSVTLFPPSSEELQANKATLVCLMNDFYPGILTVTWKADGTPITQGVEMTTPSKQSNNKYAASSYLSLTPEQWRSRRSYSCQVMHEGSTVEKTVAPAECS chain 2: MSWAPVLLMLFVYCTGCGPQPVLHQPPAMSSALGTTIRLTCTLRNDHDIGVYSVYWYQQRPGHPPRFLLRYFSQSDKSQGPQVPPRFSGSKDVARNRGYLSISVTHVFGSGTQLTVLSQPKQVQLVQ
0.22

The reported numbers originate from patent US20150045540A1.
